All values here come from patent US8278415B2.

- TARGET ENTITY: sEGFR-MMB (human)
- Sequence (chain, as listed by the source limits assumed): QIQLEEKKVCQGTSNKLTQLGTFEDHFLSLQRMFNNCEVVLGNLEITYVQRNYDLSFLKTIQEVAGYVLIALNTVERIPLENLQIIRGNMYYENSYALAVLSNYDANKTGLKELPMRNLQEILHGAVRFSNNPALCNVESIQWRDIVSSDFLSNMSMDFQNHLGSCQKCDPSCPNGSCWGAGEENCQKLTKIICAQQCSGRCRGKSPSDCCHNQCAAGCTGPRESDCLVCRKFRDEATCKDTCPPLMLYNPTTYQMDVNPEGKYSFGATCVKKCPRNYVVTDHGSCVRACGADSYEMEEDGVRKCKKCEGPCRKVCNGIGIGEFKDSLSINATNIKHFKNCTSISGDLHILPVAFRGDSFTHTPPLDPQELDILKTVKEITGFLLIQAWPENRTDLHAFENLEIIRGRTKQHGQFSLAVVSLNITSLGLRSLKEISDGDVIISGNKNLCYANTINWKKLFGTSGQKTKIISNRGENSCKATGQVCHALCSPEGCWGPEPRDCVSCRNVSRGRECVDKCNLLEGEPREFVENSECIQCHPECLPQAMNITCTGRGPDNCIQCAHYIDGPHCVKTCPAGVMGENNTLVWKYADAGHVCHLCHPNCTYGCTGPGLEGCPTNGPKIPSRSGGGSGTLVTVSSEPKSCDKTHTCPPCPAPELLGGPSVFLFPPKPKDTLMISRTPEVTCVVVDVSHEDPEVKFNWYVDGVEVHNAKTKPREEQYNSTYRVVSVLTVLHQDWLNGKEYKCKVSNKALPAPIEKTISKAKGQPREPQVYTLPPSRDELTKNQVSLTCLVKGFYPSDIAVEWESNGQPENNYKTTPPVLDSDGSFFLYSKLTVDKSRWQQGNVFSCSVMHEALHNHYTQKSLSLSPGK
- RUN DESCRIPTION: phage ELISA on coated sEGFR-MMB, chemiluminescence (background typically <200 units)
Catalogue of ELISA values
# output: bare number, implied unit units

Below, each entry is followed by its recorded ELISA result.
TDCVRFGETIYCIV [S18 library phage peptide of SEQ ID NO: 33] = 13300
DSCIQFANLLYCAI [S18 library phage peptide of SEQ ID NO: 27] = 53200
SDCVLFGSKLFCSA [S18 library phage peptide of SEQ ID NO: 32] = 35300

// moving on: another record for ELISA
input: Reported ELISA for RDCIIFDKTVYCVI [S18 library phage peptide of SEQ ID NO: 25] : what is it?
output: 17100
